# Test system: S. aureus (ATCC 25293)
# experiment.description: In vitro anti-S. aureus CFU assay
# Format: cell-based, Staphylococcus aureus
# condition.context: peptide 0.032 mg/mL + ZnCl2 (0.9:1), 3 h, pH 5.4; per 0.1 mL
Residues, ends and D or L forms follow the SMILES beside them.
Reported mean CFU number ± S.D. values follow for various molecules

molecule	measurement.target	mean CFU number ± S.D. [CFU]
CC[C@H](C)[C@H](NC(=O)[C@H](C)NC(=O)[C@@H](NC(C)=O)C(C)C)C(=O)N[C@@H](C)C(=O)N[C@@H](CC(C)C)C(=O)N[C@@H](CCCCN)C(=O)N[C@@H](C)C(=O)N[C@@H](C)C(=O)N[C@@H](Cc1c[nH]cn1)C(=O)N[C@@H](Cc1ccc(O)cc1)C(=O)N[C@@H](Cc1c[nH]cn1)C(=O)N[C@H](C(=O)N[C@@H](Cc1c[nH]cn1)C(=O)N[C@@H](CCCCN)C(=O)N[C@@H](CCC(=O)O)C(=O)O)[C@@H](C)O [L1, Ac-VAIALKAAHYHTHKE] (Ac-VAIALKAAHYHTHKE-OH)	S. aureus (ATCC 25293)	183
CC[C@H](C)[C@H](NC(=O)[C@H](C)NC(=O)[C@@H](NC(C)=O)C(C)C)C(=O)N[C@@H](C)C(=O)N[C@@H](CC(C)C)C(=O)N[C@@H](CCCCN)C(=O)N[C@@H](C)C(=O)N[C@@H](C)C(=O)N[C@@H](Cc1c[nH]cn1)C(=O)N[C@@H](Cc1ccc(O)cc1)C(=O)N[C@@H](Cc1c[nH]cn1)C(=O)N[C@H](C(=O)N[C@@H](Cc1c[nH]cn1)C(=O)N[C@@H](CCCCN)C(=O)N[C@@H](CCC(=O)O)C(N)=O)[C@@H](C)O [L2, Ac-VAIALKAAHYHTHKE-NH2] (Ac-VAIALKAAHYHTHKE-NH2)	S. aureus (ATCC 25293)	177
CC[C@H](C)[C@H](NC(=O)[C@H](C)NC(=O)[C@@H](N)C(C)C)C(=O)N[C@@H](C)C(=O)N[C@@H](CC(C)C)C(=O)N[C@@H](CCCCN)C(=O)N[C@@H](C)C(=O)N[C@@H](C)C(=O)N[C@@H](Cc1c[nH]cn1)C(=O)N[C@@H](Cc1ccc(O)cc1)C(=O)N[C@@H](Cc1c[nH]cn1)C(=O)N[C@H](C(=O)N[C@@H](Cc1c[nH]cn1)C(=O)N[C@@H](CCCCN)C(=O)N[C@@H](CCC(=O)O)C(=O)O)[C@@H](C)O [WT, VAIALKAAHYHTHKE, reference compound] (H-VAIALKAAHYHTHKE-OH)	S. aureus (ATCC 25293)	169

* * *

# Test system: C. albicans (ATCC 10231)
# experiment.description: In vitro antifungal CFU assay
# Format: cell-based, Candida albicans
# condition.context: peptide alone 0.128 mg/mL, 24 h, pH 5.4; per 0.1 mL
Residues, ends and D or L forms follow the SMILES beside them.

compound	measurement.target	mean CFU number ± S.D.
CC[C@H](C)[C@H](NC(=O)[C@H](C)NC(=O)[C@@H](NC(C)=O)C(C)C)C(=O)N[C@@H](C)C(=O)N[C@@H](CC(C)C)C(=O)N[C@@H](CCCCN)C(=O)N[C@@H](C)C(=O)N[C@@H](C)C(=O)N[C@@H](Cc1c[nH]cn1)C(=O)N[C@@H](Cc1ccc(O)cc1)C(=O)N[C@@H](Cc1c[nH]cn1)C(=O)N[C@H](C(=O)N[C@@H](Cc1c[nH]cn1)C(=O)N[C@@H](CCCCN)C(=O)N[C@@H](CCC(=O)O)C(=O)O)[C@@H](C)O [L1, Ac-VAIALKAAHYHTHKE] (Ac-VAIALKAAHYHTHKE-OH)	C. albicans (ATCC 10231)	1,666 ± 229 CFU
